- experiment_notes: Dose-response test of 1,25-(OH)2D3, intravaginal vs intravenous: 1,25-(OH)2D3 in plasma and bioavailability (Example 3)
- Type: in vivo, cow
- test_settings: female, Holstein, bovine, plasma, other: intravaginal; 0 hour; intravaginal 1.0 μg/kg; read-out: 1,25-(OH)2D3 level in plasma
measured_endpoint: concentration at 0 h (pg/mL)
Give the value in pg/mL but do not write pg/mL after it.

Short answer for C=C1/C(=C\C=C2/CCC[C@]3(C)[C@@H]([C@H](C)CCCC(C)(C)O)CC[C@@H]23)C[C@@H](O)C[C@@H]1O [1,25-(OH)2D3, 1,25-dihydroxyvitamin D3] : concentration at 0 h was 6.6

* * *

- experiment_notes: Dose-response test of 1,25-(OH)2D3, intravaginal vs intravenous: 1,25-(OH)2D3 in plasma and bioavailability (Example 3)
- Assay type: in vivo, cow
- test_settings: female, Holstein, bovine, plasma, other: intravaginal, 1 μg/kg; intravaginal vs intravenous; ovariectomized cows; read-out: bioavailability; share of 1,25-(OH)2D3 administered to the vaginal lumen entering the circulatory system
measured_endpoint: bioavailability

Briefly, bioavailability measured for C=C1/C(=C\C=C2/CCC[C@]3(C)[C@@H]([C@H](C)CCCC(C)(C)O)CC[C@@H]23)C[C@@H](O)C[C@@H]1O [1,25-(OH)2D3, 1,25-dihydroxyvitamin D3] : ~93%
